These data points were gathered from ChEMBL document CHEMBL1133330.

# TARGET_OR_SYSTEM: Integrin alpha-4/beta-1 (Homo sapiens, UniProt P05556+P13612)
# Sequence (P05556 whole entry): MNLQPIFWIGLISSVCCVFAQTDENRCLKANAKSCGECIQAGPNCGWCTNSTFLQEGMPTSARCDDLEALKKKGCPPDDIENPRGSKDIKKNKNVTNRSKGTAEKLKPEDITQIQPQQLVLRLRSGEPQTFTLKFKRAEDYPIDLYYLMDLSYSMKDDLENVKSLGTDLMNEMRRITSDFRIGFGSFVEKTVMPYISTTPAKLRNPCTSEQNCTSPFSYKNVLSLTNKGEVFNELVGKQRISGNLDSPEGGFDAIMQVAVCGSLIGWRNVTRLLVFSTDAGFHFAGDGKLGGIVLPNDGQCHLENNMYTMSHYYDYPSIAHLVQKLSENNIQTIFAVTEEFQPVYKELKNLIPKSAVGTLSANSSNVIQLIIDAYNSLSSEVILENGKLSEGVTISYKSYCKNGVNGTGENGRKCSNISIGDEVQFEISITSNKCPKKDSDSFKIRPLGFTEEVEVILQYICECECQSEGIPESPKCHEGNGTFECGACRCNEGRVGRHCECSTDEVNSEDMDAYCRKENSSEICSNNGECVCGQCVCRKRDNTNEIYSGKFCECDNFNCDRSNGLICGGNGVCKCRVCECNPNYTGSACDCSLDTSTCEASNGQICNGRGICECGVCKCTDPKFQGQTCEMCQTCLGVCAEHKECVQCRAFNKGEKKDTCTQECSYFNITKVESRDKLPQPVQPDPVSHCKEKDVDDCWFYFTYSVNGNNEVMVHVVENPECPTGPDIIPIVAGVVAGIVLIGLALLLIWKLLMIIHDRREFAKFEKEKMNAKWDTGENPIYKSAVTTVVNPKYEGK
# Sequence (P13612 whole entry): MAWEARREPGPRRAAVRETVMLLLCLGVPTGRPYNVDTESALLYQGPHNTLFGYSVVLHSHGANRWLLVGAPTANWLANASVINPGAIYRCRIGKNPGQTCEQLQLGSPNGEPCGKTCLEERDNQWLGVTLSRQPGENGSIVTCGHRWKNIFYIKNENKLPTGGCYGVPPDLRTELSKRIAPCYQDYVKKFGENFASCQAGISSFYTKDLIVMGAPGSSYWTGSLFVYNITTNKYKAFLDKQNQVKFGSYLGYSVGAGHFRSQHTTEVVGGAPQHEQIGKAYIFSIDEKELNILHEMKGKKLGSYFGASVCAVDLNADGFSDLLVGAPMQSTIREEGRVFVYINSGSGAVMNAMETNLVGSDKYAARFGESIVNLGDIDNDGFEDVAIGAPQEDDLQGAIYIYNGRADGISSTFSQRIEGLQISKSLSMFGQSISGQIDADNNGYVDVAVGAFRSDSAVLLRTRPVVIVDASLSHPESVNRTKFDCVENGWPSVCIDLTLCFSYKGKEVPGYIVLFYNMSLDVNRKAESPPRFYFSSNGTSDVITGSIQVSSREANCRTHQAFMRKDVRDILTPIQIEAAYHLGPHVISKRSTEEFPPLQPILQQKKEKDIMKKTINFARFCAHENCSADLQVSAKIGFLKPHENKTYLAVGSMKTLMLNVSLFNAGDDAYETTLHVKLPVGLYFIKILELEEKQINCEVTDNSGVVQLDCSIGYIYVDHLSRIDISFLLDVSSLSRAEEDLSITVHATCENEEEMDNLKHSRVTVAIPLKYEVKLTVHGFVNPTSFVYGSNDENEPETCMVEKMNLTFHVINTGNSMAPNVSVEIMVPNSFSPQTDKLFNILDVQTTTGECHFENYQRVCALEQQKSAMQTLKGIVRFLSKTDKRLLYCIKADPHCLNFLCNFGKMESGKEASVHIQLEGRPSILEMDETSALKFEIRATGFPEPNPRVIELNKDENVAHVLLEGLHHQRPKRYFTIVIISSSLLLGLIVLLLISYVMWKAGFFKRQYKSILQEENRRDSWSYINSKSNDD
# EXPERIMENT_DESCRIPTION: Antagonistic activity against VLA-4 binding to recombinant human VCAM by ramos cell assay
# Format: cell-based
OBSERVABLE: IC50 (nM)

I: O=C(Nc1ccc(C[C@H](NC(=O)C2CCC(=O)N2Cc2ccccc2)C(=O)O)cc1)c1ccc(Cl)cc1[N+](=O)[O-] (some centres not stated)
II: O=C(Nc1ccc(C[C@H](NC(=O)C2CCC(=O)N2Cc2ccccc2)C(=O)O)cc1)c1c(Cl)cccc1Cl (some centres not stated)
// task: argmin of IC50 over [ I , II ] Give the label of your selection.
I

A: O=C(Nc1ccc(C[C@H](NC(=O)C2CCC(=O)N2Cc2ccccc2)C(=O)O)cc1)c1cc(F)c(F)cc1F (some centres not stated)
B: Cc1ccc(C(=O)Nc2ccc(C[C@H](NC(=O)C3CCC(=O)N3Cc3ccccc3)C(=O)O)cc2)c(Cl)n1 (some centres not stated)
Of the two listed items, A and B , which carries the larger IC50 figure? Give the label of your selection.
A
(A: 127 nM, B: 33 nM)

P: O=C(O)[C@H](Cc1ccc(NS(=O)(=O)c2cccc(C(F)(F)F)c2)cc1)NC(=O)[C@@H]1CCC(=O)N1Cc1ccccc1
Q: O=C(Nc1ccc(C[C@H](NC(=O)C2CCC(=O)N2Cc2ccccc2)C(=O)O)cc1)c1cc(C(F)(F)F)ccc1C(F)(F)F (some centres not stated)
// task: argmin of IC50 over [ P , Q ] Give the label of your selection.
Q
(Q: 54 nM, P: 26000 nM)

* * *

# TARGET_OR_SYSTEM: Integrin alpha-4/beta-1 (Homo sapiens, UniProt P05556+P13612)
# EXPERIMENT_DESCRIPTION: Antagonistic activity against VLA-4 (derived from ramos cells) binding to recombinant human VCAM by ELISA assay
# Assay type: cell-based
OBSERVABLE: IC50 (nM)

Briefly, IC50 measured for O=C(O)[C@H](Cc1cccc2ccccc12)NC(=O)[C@@H]1CCC(=O)N1Cc1ccccc1 : 230

I: O=C(O)[C@H](Cc1ccc(OCc2ccc([N+](=O)[O-])cc2)cc1)NC(=O)[C@@H]1CCC(=O)N1Cc1ccccc1
II: COc1ccc(C(=O)Nc2ccc(C[C@H](NC(=O)C3CCC(=O)N3Cc3ccccc3)C(=O)O)cc2)c(OC)n1 (some centres undefined)
// task: argmin of IC50 over [ I , II ] Give the label of your selection.
II

* * *

# TARGET_OR_SYSTEM: Integrin alpha-4/beta-1 (Homo sapiens, UniProt P05556+P13612)
# EXPERIMENT_DESCRIPTION: Antagonistic activity against VLA-4 (derived from ramos cells) binding to recombinant human VCAM by ELISA assay
# Format: cell-based
OBSERVABLE: IC50 (nM)

I: O=C(O)[C@H](Cc1ccc(NS(=O)(=O)c2cccc(C(F)(F)F)c2)cc1)NC(=O)[C@@H]1CCC(=O)N1Cc1ccccc1
II: O=C(O)[C@H](Cc1ccc(/C=C/c2ccc([N+](=O)[O-])cc2)cc1)NC(=O)[C@@H]1CCC(=O)N1Cc1ccccc1
// task: argmin of IC50 over [ I , II ] Give the label of your selection.
I
(I: 20 nM, II: 90 nM)

a: N#Cc1cccc(C(=O)Nc2ccc(C[C@H](NC(=O)C3CCC(=O)N3Cc3ccccc3)C(=O)O)cc2)c1 (some centres undefined)
b: COc1ccc(C[C@H](NC(=O)[C@@H]2CCC(=O)N2Cc2ccccc2)C(=O)O)cc1
Of the two listed items, a and b , which carries the larger IC50 figure? Give the label of your selection.
b

* * *

# TARGET_OR_SYSTEM: Integrin alpha-4/beta-1 (Homo sapiens, UniProt P05556+P13612)
# EXPERIMENT_DESCRIPTION: Antagonistic activity against VLA-4 binding to recombinant human VCAM by ramos cell assay
# Assay type: cell-based
OBSERVABLE: IC50 (µM)

Reported IC50 (Integrin alpha-4/beta-1 (Homo sapiens, UniProt P05556+P13612)) for entry CC(=O)N[C@H](Cc1ccc(O)cc1)C(=O)Nc1ccc(C[C@H](NC(=O)[C@@H]2CCC(=O)N2Cc2ccccc2)C(=O)O)cc1 is 1.9

Reported IC50 (Integrin alpha-4/beta-1 (Homo sapiens, UniProt P05556+P13612)) for entry NS(=O)(=O)c1ccc(C(=O)Nc2ccc(C[C@H](NC(=O)C3CCC(=O)N3Cc3ccccc3)C(=O)O)cc2)cc1 (stereo partly drawn) is 1.06

Reported IC50 (Integrin alpha-4/beta-1 (Homo sapiens, UniProt P05556+P13612)) for entry Cc1ccc([N+](=O)[O-])cc1C(=O)Nc1ccc(C[C@H](NC(=O)C2CCC(=O)N2Cc2ccccc2)C(=O)O)cc1 (stereo partly drawn) is 0.011

Reported IC50 (Integrin alpha-4/beta-1 (Homo sapiens, UniProt P05556+P13612)) for entry Cc1ccc([N+](=O)[O-])c(C(=O)Nc2ccc(C[C@H](NC(=O)C3CCC(=O)N3Cc3ccccc3)C(=O)O)cc2)c1 (stereo partly drawn) is 0.077

Reported IC50 (Integrin alpha-4/beta-1 (Homo sapiens, UniProt P05556+P13612)) for entry O=C(O)[C@H](Cc1ccc(NS(=O)(=O)c2ccc([N+](=O)[O-])cc2)cc1)NC(=O)[C@@H]1CCC(=O)N1Cc1ccccc1 is 16

A: O=C(Nc1ccc(C[C@H](NC(=O)C2CCC(=O)N2Cc2ccccc2)C(=O)O)cc1)c1ccccc1[N+](=O)[O-] (stereo partly drawn)
B: O=C(Nc1ccc(C[C@H](NC(=O)C2CCC(=O)N2Cc2ccccc2)C(=O)O)cc1)c1ccccn1 (stereo partly drawn)
// task: argmin of IC50 over [ A , B ] Give the label of your selection.
A

* * *

# TARGET_OR_SYSTEM: Integrin alpha-4/beta-1 (Homo sapiens, UniProt P05556+P13612)
# EXPERIMENT_DESCRIPTION: Antagonistic activity against VLA-4 binding to recombinant human VCAM by ramos cell assay
# Assay type: cell-based
pIC50: −log10 of the molar value.
OBSERVABLE: pIC50

Briefly, pIC50 measured for N#Cc1cccc(C(=O)Nc2ccc(C[C@H](NC(=O)C3CCC(=O)N3Cc3ccccc3)C(=O)O)cc2)c1 (stereo partly drawn) : 6.59

Briefly, pIC50 measured for O=C(Nc1ccc(C[C@H](NC(=O)C2CCC(=O)N2Cc2ccccc2)C(=O)O)cc1)c1ccnc2ccccc12 (stereo partly drawn) : 7.10

Briefly, pIC50 measured for O=C(Nc1ccc(C[C@H](NC(=O)C2CCC(=O)N2Cc2ccccc2)C(=O)O)cc1)c1ccc(F)cc1C(F)(F)F (stereo partly drawn) : 7.55

Briefly, pIC50 measured for COc1ccc([N+](=O)[O-])cc1C(=O)Nc1ccc(C[C@H](NC(=O)C2CCC(=O)N2Cc2ccccc2)C(=O)O)cc1 (stereo partly drawn) : 7.55

1: COc1ccc(-c2cccnc2C(=O)Nc2ccc(C[C@H](NC(=O)C3CCC(=O)N3Cc3ccccc3)C(=O)O)cc2)cc1 (stereo partly drawn)
2: COc1ccc(C(=O)Nc2ccc(C[C@H](NC(=O)C3CCC(=O)N3Cc3ccccc3)C(=O)O)cc2)c(OC)n1 (stereo partly drawn)
3: O=C(Nc1ccc(C[C@H](NC(=O)[C@@H]2CCC(=O)N2Cc2ccccc2)C(=O)O)cc1)c1ccccc1
4: O=C(Nc1ccc(C[C@H](NC(=O)[C@@H]2CCC(=O)N2Cc2ccccc2)C(=O)O)cc1)c1ccc([N+](=O)[O-])cc1
Arrange the 4 compounds from largest to smallest pIC50. I'd appreciate it if you listed the labels in the requested order.
1, 2, 3, 4

* * *

# TARGET_OR_SYSTEM: Integrin alpha-4/beta-1 (Homo sapiens, UniProt P05556+P13612)
# EXPERIMENT_DESCRIPTION: Antagonistic activity against VLA-4 (derived from ramos cells) binding to recombinant human VCAM by ELISA assay
# Assay type: cell-based
OBSERVABLE: IC50 (nM)

See these solved cases before continuing.
Reported IC50 (Integrin alpha-4/beta-1 (Homo sapiens, UniProt P05556+P13612)) for entry CC1CCC(C[C@H](NC(=O)[C@@H]2CCC(=O)N2Cc2ccccc2)C(=O)O)CC1 (some centres not stated) is 42500

Reported IC50 (Integrin alpha-4/beta-1 (Homo sapiens, UniProt P05556+P13612)) for entry O=C(Nc1ccc(C[C@H](NC(=O)C2CCC(=O)N2Cc2ccccc2)C(=O)O)cc1)c1cccnc1O (some centres not stated) is 4

Reported IC50 (Integrin alpha-4/beta-1 (Homo sapiens, UniProt P05556+P13612)) for entry O=C(O)[C@H](Cc1ccc2c(c1)OCO2)NC(=O)[C@@H]1CCC(=O)N1Cc1ccccc1 is 220

A: O=C(Nc1ccc(C[C@H](NC(=O)C2CCC(=O)N2Cc2ccccc2)C(=O)O)cc1)c1ccnc2ccccc12 (some centres not stated)
B: CC(=O)N[C@H](Cc1ccc(O)cc1)C(=O)Nc1ccc(C[C@H](NC(=O)[C@@H]2CCC(=O)N2Cc2ccccc2)C(=O)O)cc1
Of the two listed items, A and B , which carries the larger IC50 figure? Give the label of your selection.
B

I: COc1ccc([N+](=O)[O-])cc1C(=O)Nc1ccc(C[C@H](NC(=O)C2CCC(=O)N2Cc2ccccc2)C(=O)O)cc1 (some centres not stated)
II: O=C(Nc1ccc(C[C@H](NC(=O)[C@@H]2CCC(=O)N2Cc2ccccc2)C(=O)O)cc1)c1ccccc1
III: [N-]=[N+]=NCc1ccc(C[C@H](NC(=O)[C@@H]2CCC(=O)N2Cc2ccccc2)C(=O)O)cc1
IV: NS(=O)(=O)c1ccc(C(=O)Nc2ccc(C[C@H](NC(=O)C3CCC(=O)N3Cc3ccccc3)C(=O)O)cc2)cc1 (some centres not stated)
V: Cc1ccc([N+](=O)[O-])cc1C(=O)Nc1ccc(C[C@H](NC(=O)C2CCC(=O)N2Cc2ccccc2)C(=O)O)cc1 (some centres not stated)
Arrange the 5 compounds from largest to smallest IC50. I'd appreciate it if you listed the labels in the requested order.
III, II, IV, I, V

P: O=C(Nc1ccc(C[C@H](NC(=O)C2CCC(=O)N2Cc2ccccc2)C(=O)O)cc1)c1ccc(F)cc1C(F)(F)F (some centres not stated)
Q: O=C(Nc1ccc(C[C@H](NC(=O)C2CCC(=O)N2Cc2ccccc2)C(=O)O)cc1)c1cc(C(F)(F)F)ccc1C(F)(F)F (some centres not stated)
Of the two listed items, P and Q , which carries the larger IC50 figure? Give the label of your selection.
Q
(Q: 1.1 nM, P: 0.75 nM)

I: CC(=O)N[C@@H](Cc1ccc(O)cc1)C(=O)NCc1ccc(C[C@H](NC(=O)[C@@H]2CCC(=O)N2Cc2ccccc2)C(=O)O)cc1
II: O=C(Nc1ccc(C[C@H](NC(=O)C2CCC(=O)N2Cc2ccccc2)C(=O)O)cc1)c1c(Cl)cccc1Cl (some centres not stated)
// task: argmin of IC50 over [ I , II ] Give the label of your selection.
II
(II: 0.37 nM, I: 20 nM)
